# TARGET SYSTEM: 5-hydroxytryptamine receptor 6 (Homo sapiens)
# PROTOCOL TEXT: Antagonist activity at human recombinant 5HT6 receptor expressed in CHO cells assessed as inhibition of 5HT-induced luciferase activity after 4 hrs by reporter gene assay
# Assay type: functional, cell-based
I'd be grateful if you could share measured Kb for these entries.
One number for each entry, in nM.

Check out these entries, answers already filled in.
| SMILES DATA | Kb / nM |
| --- | --- |
| COc1ccc(S(=O)(=O)n2ccc3cc(OC(C)C)ccc32)cc1NC1CCN(C)CC1 | 2.2 |
| COc1ccc2ccn(S(=O)(=O)c3ccc(OC)c(NC4CCN(C)CC4)c3)c2c1.O=P(O)(O)O | 0.1 |
| COc1ccc(S(=O)(=O)n2ccc3ccc(F)cc32)cc1NC1CCNCC1 | 0.3 |

For the 3 molecules below, give their Kb values.
1. COc1ccc(S(=O)(=O)N2CC(C)(C)Oc3ccc(F)cc32)cc1NC1CCN(C)CC1
2. Cc1nn(S(=O)(=O)c2ccc(F)c(NC3CCN(C)CC3)c2)c2ccc(Cl)cc12
3. COc1ccc2ccn(S(=O)(=O)c3ccc(C)c(NC4CCN(C)CC4)c3)c2c1

Result block:
1: 0.1; 2: 10.1; 3: 0.25

----------
# PROTOCOL TEXT: Clearance in Wistar rat at 10 mg/kg, iv
# Format: ADME, organism-based
# Design: dose 10 mg/kg, route intravenous
# STUDY CONDITIONS: in vivo
MEASURED ATTRIBUTE: clearance (mL/min/kg)
Answers are plain numbers, in mL/min/kg.

Query block: Requested read-out: clearance. Entry: COc1ccc(S(=O)(=O)n2cc(C)c3cc(Cl)ccc32)cc1NC1CCN(C)CC1
Result block: 59

----------
Target sequence: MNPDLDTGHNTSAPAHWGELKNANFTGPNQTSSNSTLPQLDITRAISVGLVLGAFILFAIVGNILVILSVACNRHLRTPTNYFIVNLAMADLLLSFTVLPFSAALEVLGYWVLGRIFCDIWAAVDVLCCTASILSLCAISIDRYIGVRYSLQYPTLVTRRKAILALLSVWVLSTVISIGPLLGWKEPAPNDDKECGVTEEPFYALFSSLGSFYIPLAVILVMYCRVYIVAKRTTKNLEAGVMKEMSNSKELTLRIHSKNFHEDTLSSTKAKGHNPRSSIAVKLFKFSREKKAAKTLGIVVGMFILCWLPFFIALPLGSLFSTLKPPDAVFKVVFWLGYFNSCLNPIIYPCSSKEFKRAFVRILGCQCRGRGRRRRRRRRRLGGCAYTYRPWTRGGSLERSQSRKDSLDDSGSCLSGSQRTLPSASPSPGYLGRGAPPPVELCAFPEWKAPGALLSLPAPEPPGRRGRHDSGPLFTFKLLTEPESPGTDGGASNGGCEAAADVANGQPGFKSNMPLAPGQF
MEASURED ATTRIBUTE: Ki (µM)
One number for each entry, in µM.

Query block: Requested read-out: Ki. Entry: COc1ccc(S(=O)(=O)n2cc(C)c3cc(Cl)cnc32)cc1NC1CCN(C)CC1
Result block: 3.79

----------
I'd be grateful if you could share measured Imax for these entries.
# TARGET SYSTEM: 5-hydroxytryptamine receptor 6 (Homo sapiens) (UniProt P50406)
# Sequence (P50406 whole entry): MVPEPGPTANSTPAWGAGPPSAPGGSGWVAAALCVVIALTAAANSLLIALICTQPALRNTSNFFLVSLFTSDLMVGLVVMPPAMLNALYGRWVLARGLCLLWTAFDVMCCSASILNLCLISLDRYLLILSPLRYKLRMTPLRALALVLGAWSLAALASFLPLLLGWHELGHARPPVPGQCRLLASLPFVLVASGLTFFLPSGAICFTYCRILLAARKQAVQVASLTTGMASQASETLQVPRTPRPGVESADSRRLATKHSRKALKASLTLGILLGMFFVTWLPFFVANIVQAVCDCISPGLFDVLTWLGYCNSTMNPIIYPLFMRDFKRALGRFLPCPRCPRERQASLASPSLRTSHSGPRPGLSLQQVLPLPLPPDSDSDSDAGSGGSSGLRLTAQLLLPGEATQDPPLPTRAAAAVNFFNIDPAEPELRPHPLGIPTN
# PROTOCOL TEXT: Antagonist activity at human recombinant 5HT6 receptor expressed in CHO cells assessed as inhibition of 5HT-induced luciferase activity after 4 hrs by reporter gene assay relative to control
# Assay type: functional, cell-based
Numbers only, in %.

Check out these entries, answers already filled in.
| SMILES DATA | MEASURED ATTRIBUTE | MEASURED VALUE |
| --- | --- | --- |
| COc1ccc(S(=O)(=O)n2ccc3cc(F)ccc32)cc1NC1CCN(C)CC1 | Imax | 100 |
| COc1ccc2c(ccn2S(=O)(=O)c2cccc(NC3CCN(C)CC3)c2)c1 | Imax | 96 |
| COc1ccc(S(=O)(=O)N2CCc3ccccc3C2)cc1NC1CCN(C)CC1 | Imax | 98 |

For the 2 compounds below, give their Imax values.
1. CCc1ccc(S(=O)(=O)n2ccc3c(Cl)cccc32)cc1NC1CCN(C)CC1
2. Cc1cn(S(=O)(=O)c2ccc(F)c(NC3CCN(C)CC3)c2)c2ccccc12

Result block:
90
100

Reference source for all entries: ChEMBL document CHEMBL2176989
